Ref: ChEMBL document CHEMBL5506006

test: Cytotoxicity against African green monkey Vero cells; type: toxicity, cell-based; conditions: African green monkey (Chlorocebus sabaeus)
Each entry below carries its reported EC50.
Express your answer in µg/mL, writing the number without its unit.

>  <query_smiles>
NC(=O)c1nc(-c2ccc(Oc3ccc(Cl)cc3)cc2)nc2c1ncn2-c1ccccc1

>  <u>
µg/mL

>  <reported>
12.7

$$$$

State, in one line, measured EC50 of `CCOc1ccc(-c2nc(C(N)=O)c3ncn(-c4ccccc4)c3n2)cc1`
12.9

* * *

test: Biodistribution in C57BL/6 mouse blood at 25 mg/kg, po administered as single dose and measured after 2 hrs by HPLC based UV-Visble detector method; assay type: ADME, organism-based; settings: read-out: Drug uptake
property: concentration at 2 h
Please state the number and follow it with the unit.

State, in one line, measured concentration at 2 h of `COc1ccc(-c2nc(C(N)=O)c3ncn(-c4ccccc4)c3n2)cc1`
630 ng/g

* * *

assay: Biodistribution in C57BL/6 mouse liver at 25 mg/kg, po administered as single dose and measured after 2 hrs by HPLC based UV-Visble detector method; type: ADME, organism-based; settings: read-out: Drug uptake
property: concentration at 2 h (ng/g)
Express your answer in ng/g, writing the number without its unit.

State, in one line, measured concentration at 2 h of `COc1ccc(-c2nc(C(N)=O)c3ncn(-c4ccccc4)c3n2)cc1`
4800

* * *

test: Biodistribution in C57BL/6 mouse lung at 25 mg/kg, po administered as single dose and measured after 48 hrs by HPLC based UV-Visble detector method; format: ADME, organism-based; settings: read-out: Drug uptake
property: concentration at 48 h (ng/g)
Express your answer in ng/g, writing the number without its unit.

State, in one line, measured concentration at 48 h of `COc1ccc(-c2nc(C(N)=O)c3ncn(-c4ccccc4)c3n2)cc1`
1210

* * *

system: Mycobacterium tuberculosis; assay: Antituberculosis activity against Mycobacterium tuberculosis H37Rv; format: functional, organism-based
Each entry below carries its reported IC90.

>  <query_smiles>
COc1ccc(-c2nc(C(N)=O)c3ncn(-c4ccccc4)c3n2)c2ccccc12

>  <IC90>
> 100 µg/mL

$$$$

Look up and report measured IC90 (Mycobacterium tuberculosis) for the following molecule: `NC(=O)c1nc(-c2ccccc2O)nc2c1ncn2-c1ccccc1`
> 100 µg/mL

Look up and report measured IC90 (Mycobacterium tuberculosis) for the following molecule: `CN(C)c1ccc(-c2nc(C(N)=O)c3ncn(-c4ccccc4)c3n2)cc1`
1.67 µg/mL

* * *

experiment: Selectivity index, ratio of EC50 for african green monkey Vero cells to IC90 for Mycobacterium tuberculosis H37Rv; format: toxicity; conditions: read-out: Selectivity Index
Each entry below carries its reported selectivity ratio.
Returns: the value as a bare number; no unit string appended.

>  <query_smiles>
NC(=O)c1nc(-c2ccc(Oc3ccc(Cl)cc3)cc2)nc2c1ncn2-c1ccccc1

>  <selectivity ratio>
4.11

$$$$

Note: attention shifts to another entry.
State, in one line, measured selectivity ratio of `CCOc1ccc(-c2nc(C(N)=O)c3ncn(-c4ccccc4)c3n2)cc1`
7.85

* * *

assay: Biodistribution in C57BL/6 mouse lung at 25 mg/kg, po administered as single dose and measured after 24 hrs by HPLC based UV-Visble detector method; type: ADME, organism-based; details: read-out: Drug uptake
property: concentration at 24 h (ng/g)
Express your answer in ng/g, writing the number without its unit.

State, in one line, measured concentration at 24 h of `COc1ccc(-c2nc(C(N)=O)c3ncn(-c4ccccc4)c3n2)cc1`
4030

* * *

experiment: Biodistribution in C57BL/6 mouse liver at 25 mg/kg, po administered as single dose and measured after 6 hrs by HPLC based UV-Visble detector method; format: ADME, organism-based; details: read-out: Drug uptake
property: concentration at 6 h
Please state the number and follow it with the unit.

State, in one line, measured concentration at 6 h of `COc1ccc(-c2nc(C(N)=O)c3ncn(-c4ccccc4)c3n2)cc1`
1460 ng/g

* * *

Each entry below carries its reported EC50.
test: Cytotoxicity against African green monkey Vero cells; assay type: toxicity, cell-based; details: African green monkey (Chlorocebus sabaeus)

>  <query_smiles>
COc1ccc(-c2nc(C(N)=O)c3ncn(-c4ccccc4)c3n2)cc1

>  <reported>
> 30 µg/mL

$$$$
>  <query_smiles>
NC(=O)c1nc(-c2ccc(O)cc2)nc2c1ncn2-c1ccccc1

>  <reported>
> 30 µg/mL

$$$$

Note: attention shifts to another entry.
State, in one line, measured EC50 of `CN(C)c1ccc(-c2nc(C(N)=O)c3ncn(-c4ccccc4)c3n2)cc1`
> 40 µg/mL

* * *

test system: Mycobacterium tuberculosis; assay: Antituberculosis activity against Mycobacterium tuberculosis H37Rv; format: functional, organism-based
Each entry below carries its reported IC90.

Please review the entries below; each comes with its answer.
>  <query_smiles>
NC(=O)c1nc(-c2ccccc2O)nc2c1ncn2Cc1ccccc1

>  <target_desc>
Mycobacterium tuberculosis

>  <IC90>
> 100 µg/mL

$$$$
>  <query_smiles>
NC(=O)c1nc(-c2ccc(C(F)(F)F)cc2)nc2c1ncn2-c1ccccc1

>  <target_desc>
Mycobacterium tuberculosis

>  <IC90>
> 100 µg/mL

$$$$
>  <query_smiles>
COc1ccc(-n2cnc3c(C(N)=O)nc(-c4ccc(O)cc4)nc32)cc1

>  <target_desc>
Mycobacterium tuberculosis

>  <IC90>
> 100 µg/mL

$$$$

State, in one line, measured IC90 of `Cn1cnc2c(C(N)=O)nc(-c3ccccc3O)nc21`
> 100 µg/mL

State, in one line, measured IC90 of `Cc1ccc(-n2cnc3c(C(N)=O)nc(-c4ccccc4O)nc32)cc1`
> 100 µg/mL

State, in one line, measured IC90 of `N#Cc1ccc(-n2cnc3c(C(N)=O)nc(-c4ccccc4O)nc32)cc1`
> 100 µg/mL

State, in one line, measured IC90 of `COc1ccc(-c2nc(C(N)=O)c3ncn(-c4ccccc4)c3n2)cc1`
< 0.19 µg/mL

* * *

assay: Selectivity index, ratio of EC50 for african green monkey Vero cells to IC90 for Mycobacterium tuberculosis H37Rv; type: toxicity; details: read-out: Selectivity Index
Each entry below carries its reported selectivity ratio.

Please review the entries below; each comes with its answer.
>  <query_smiles>
NC(=O)c1nc(-c2ccc(O)cc2)nc2c1ncn2-c1ccccc1

>  <selectivity ratio>
> 25.5

$$$$
>  <query_smiles>
COc1ccc(-c2nc(C(N)=O)c3ncn(-c4ccccc4)c3n2)cc1

>  <selectivity ratio>
> 154

$$$$

Note: attention shifts to another entry.
State, in one line, measured selectivity ratio of `CN(C)c1ccc(-c2nc(C(N)=O)c3ncn(-c4ccccc4)c3n2)cc1`
> 23.9

* * *

system: Mycobacterium tuberculosis; test: Antituberculosis activity against Mycobacterium tuberculosis H37Rv; type: functional, organism-based
property: IC90

Please review the entries below; each comes with its answer.
>  <query_smiles>
COc1ccc(-n2cnc3c(C(N)=O)nc(-c4ccccc4O)nc32)cc1

>  <property>
IC90

>  <reported>
> 100 µg/mL

$$$$
>  <query_smiles>
NC(=O)c1nc(-c2cccc(O)c2)nc2c1ncn2-c1ccccc1

>  <property>
IC90

>  <reported>
> 100 µg/mL

$$$$
>  <query_smiles>
NC(=O)c1nc(-c2ccc(O)cc2)nc2c1ncn2Cc1ccccc1

>  <property>
IC90

>  <reported>
> 100 µg/mL

$$$$
>  <query_smiles>
NC(=O)c1nc(-c2ccc(OC(F)(F)F)cc2)nc2c1ncn2-c1ccccc1

>  <property>
IC90

>  <reported>
> 100 µg/mL

$$$$
>  <query_smiles>
N#Cc1ccc(-n2cnc3c(C(N)=O)nc(-c4ccc(O)cc4)nc32)cc1

>  <property>
IC90

>  <reported>
> 100 µg/mL

$$$$
>  <query_smiles>
COc1ccc2cc(-c3nc(C(N)=O)c4ncn(-c5ccccc5)c4n3)ccc2c1

>  <property>
IC90

>  <reported>
> 100 µg/mL

$$$$

State, in one line, measured IC90 of `N#Cc1ccc(-n2cnc3c(C(N)=O)nc(-c4cccc(O)c4)nc32)cc1`
> 100 µg/mL

State, in one line, measured IC90 of `CC(C)(C)Oc1ccc(-c2nc(C(N)=O)c3ncn(-c4ccccc4)c3n2)cc1`
> 100 µg/mL

State, in one line, measured IC90 of `Cn1cnc2c(C(N)=O)nc(-c3ccc(O)cc3)nc21`
47.8 µg/mL

State, in one line, measured IC90 of `NC(=O)c1nc(-c2ccc(O)cc2)nc2c1ncn2-c1ccccc1`
1.2 µg/mL

State, in one line, measured IC90 of `COc1ccc(-n2cnc3c(C(N)=O)nc(-c4cccc(O)c4)nc32)cc1`
> 100 µg/mL

State, in one line, measured IC90 of `CCOc1ccc(-c2nc(C(N)=O)c3ncn(-c4ccccc4)c3n2)cc1`
1.65 µg/mL

State, in one line, measured IC90 of `Cc1ccc(-n2cnc3c(C(N)=O)nc(-c4cccc(O)c4)nc32)cc1`
> 100 µg/mL

State, in one line, measured IC90 of `NC(=O)c1nc(-c2ccc(N3CCOCC3)cc2)nc2c1ncn2-c1ccccc1`
> 100 µg/mL

State, in one line, measured IC90 of `Cn1cnc2c(C(N)=O)nc(-c3cccc(O)c3)nc21`
> 100 µg/mL

State, in one line, measured IC90 of `NC(=O)c1nc(-c2ccc(Oc3ccc(Cl)cc3)cc2)nc2c1ncn2-c1ccccc1`
3.09 µg/mL

State, in one line, measured IC90 of `Cc1ccc(-n2cnc3c(C(N)=O)nc(-c4ccc(O)cc4)nc32)cc1`
> 100 µg/mL

State, in one line, measured IC90 of `CCc1ccc(-c2nc(C(N)=O)c3ncn(-c4ccccc4)c3n2)cc1`
> 100 µg/mL
